assay: Storage stability of IPBC in Dowanol TPM solution with cobalt dryer and azole stabilizer (HPLC); format: physicochemical; conditions: 10% by weight IPBC, 5% Octasoligen-Cobalt 8, 5% stabilizer, stored at 40° C., HPLC after two weeks
measurement.label: Amount of IPBC (2 weeks, 40° C.)
Write the quantity with the unit trailing the number.

The examples below pair each entry with its known result.
# compound.structure, Amount of IPBC (2 weeks, 40° C.)
rows = [
    ("Sc1nnc[nH]1", "9.0%"),
    ("Nc1nnc(N)[nH]1", "9.7%"),
    ("Oc1nnc(S)[nH]1", "8.9%"),
]

Pending molecule:
Item: Nc1nnc[nH]1 | Amount of IPBC (2 weeks, 40° C.): 9.5%
